Biological target: T1, Recombinant human CD123 SP1 ECD-His tag protein (human, UniProt P26951 20-305)
T1 construct: bought from R&D Systems (#301-R3/CF); biotinylated for some assays; also called rhCD123 SP1; huCD123 ECD SP1
T1 sequence: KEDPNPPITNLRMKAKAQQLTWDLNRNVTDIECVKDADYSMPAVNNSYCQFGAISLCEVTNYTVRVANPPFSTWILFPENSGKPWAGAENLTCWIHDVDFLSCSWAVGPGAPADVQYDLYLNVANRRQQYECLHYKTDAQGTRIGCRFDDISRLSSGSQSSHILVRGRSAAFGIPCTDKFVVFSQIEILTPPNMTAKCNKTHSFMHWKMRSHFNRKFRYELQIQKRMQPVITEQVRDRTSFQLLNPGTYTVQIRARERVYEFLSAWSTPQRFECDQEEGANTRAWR
Test: SPR Biacore 3000, captured Fab
readout.label: koff (s⁻¹)
One number for each entry, in s⁻¹.

# count of solved cases: 3
binder: I3RB122 (Fab, V domains shown, also called Fab of I3RB37) VH: QVQLVQSGAEVKKPGSSVKVSCKASGGTFSSYAISWVRQAPGQGLEWMGGIIPIFGTANYAQKFQGRVTITADESTSTAYMELSSLRSEDTAVYYCARDKTDFPSRLDYWGQGTLVTVSS VL: DIQMTQSPSSLSASVGDRVTITCRASQSIATWLNWYQQKPGKAPKLLIYAASSLQSGVPSRFSGSGSGTDFTLTISSLQPEDFATYYCQQYITFPLTFGQGTKVEIK
koff, s⁻¹: 0.0045

binder: I3RB119 (Fab, V domains shown, also called Fab I3RB119; I3RB18 Fab) VH: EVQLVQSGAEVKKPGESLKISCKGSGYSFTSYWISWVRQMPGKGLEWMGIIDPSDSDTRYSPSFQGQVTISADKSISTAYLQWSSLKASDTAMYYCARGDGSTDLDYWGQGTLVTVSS VL: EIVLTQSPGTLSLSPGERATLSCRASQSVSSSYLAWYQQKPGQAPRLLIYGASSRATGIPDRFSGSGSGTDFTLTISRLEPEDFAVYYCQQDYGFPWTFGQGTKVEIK
koff, s⁻¹: 0.000891

binder: I3RB120 (Fab, V domains shown, also called Fab I3RB120; I3RB2 Fab) VH: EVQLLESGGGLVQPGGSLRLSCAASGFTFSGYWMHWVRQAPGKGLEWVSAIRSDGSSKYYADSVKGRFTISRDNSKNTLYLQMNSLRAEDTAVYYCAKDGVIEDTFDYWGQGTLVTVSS VL: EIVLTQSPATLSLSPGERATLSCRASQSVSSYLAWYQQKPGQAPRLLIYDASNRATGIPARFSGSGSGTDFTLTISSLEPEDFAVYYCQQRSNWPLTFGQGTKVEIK
koff, s⁻¹: 0.00304

Here is another binder to look at.
What value of measured koff is listed for I3RB121 (Fab, V domains shown, also called Fab of I3RB35) VH: QVQLVQSGAEVKKPGSSVKVSCKASGGTFSSYAISWVRQAPGQGLEWMGGIIPIFGTANYAQKFQGRVTITADESTSTAYMELSSLRSEDTAVYYCARHLFWDAGPLDYWGQGTLVTVSS VL: DIQMTQSPSSLSASVGDRVTITCRASQSISSYLNWYQQKPGKAPKLLIYAASSLQSGVPSRFSGSGSGTDFTLTISSLQPEDFATYYCQQYFSPPYTFGQGTKVEIK ? 0.00245
